# Assay system: Adenosine receptor A2a (Rattus norvegicus) (UniProt P30543)
# Sequence (P30543 whole entry): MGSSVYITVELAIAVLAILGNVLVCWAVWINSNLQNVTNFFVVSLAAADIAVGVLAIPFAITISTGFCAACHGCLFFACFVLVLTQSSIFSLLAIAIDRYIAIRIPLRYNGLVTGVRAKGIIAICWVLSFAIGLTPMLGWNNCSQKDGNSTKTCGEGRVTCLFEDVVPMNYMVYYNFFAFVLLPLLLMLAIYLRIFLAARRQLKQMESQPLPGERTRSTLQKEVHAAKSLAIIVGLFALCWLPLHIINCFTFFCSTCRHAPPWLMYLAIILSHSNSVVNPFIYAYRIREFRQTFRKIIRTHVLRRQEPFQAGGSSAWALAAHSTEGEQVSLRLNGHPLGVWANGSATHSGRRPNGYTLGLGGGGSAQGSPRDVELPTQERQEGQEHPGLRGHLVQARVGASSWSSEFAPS
# Experiment description: Displacement of [3H]-NECA from A2A receptor in rat striatal membrane in presence of A1 receptor agonist N6-cyclopentyladenosine
# Assay type: cell membranes
# Parameters: concentration or dose not given beside the values
# Test context: Striatum, concentration not given here
Measured quantity: inhibition (%)

given_smiles=Oc1ccc(-c2cn3ccccc3n2)cc1 measured_quantity=inhibition assay_value=85
given_smiles=c1ccc(-c2nc3ccccn3c2NC2CCCCC2)cc1 measured_quantity=inhibition assay_value=77
given_smiles=O=[N+]([O-])c1ccc(-c2nc3ccccn3c2NC2CCCCC2)cc1 measured_quantity=inhibition assay_value=69
given_smiles=COc1ccc(-c2cn3ccccc3n2)cc1 measured_quantity=inhibition assay_value=61

[P] c1ccc(-c2cn3ccccc3n2)cc1
[Q] Cc1ccc(-c2nc3ccccn3c2NC2CCCCC2)cc1
P or Q : whose inhibition is greater? Answer with the label corresponding to your selection.
Q

[a] FC(F)(F)c1ccc(-c2nc3ccccn3c2NC2CCCCC2)cc1
[b] Oc1ccc(-c2nc3ccccn3c2NC2CCCCC2)cc1
Which item exceeds the other in inhibition, a or b ? Record your answer as the label of the chosen record.
a

====

# Assay system: Adenosine receptor A1 (Rattus norvegicus)
# Sequence (P25099 whole entry): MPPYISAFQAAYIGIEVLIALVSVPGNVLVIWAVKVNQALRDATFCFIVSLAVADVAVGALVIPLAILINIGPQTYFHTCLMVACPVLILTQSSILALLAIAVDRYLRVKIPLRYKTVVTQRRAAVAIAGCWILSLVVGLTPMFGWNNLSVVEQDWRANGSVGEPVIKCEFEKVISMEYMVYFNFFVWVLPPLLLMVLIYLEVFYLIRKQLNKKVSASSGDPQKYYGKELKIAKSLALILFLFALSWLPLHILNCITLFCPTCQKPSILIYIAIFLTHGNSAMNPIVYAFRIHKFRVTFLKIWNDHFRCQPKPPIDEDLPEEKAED
# Experiment description: Displacement of [3H]-DPCPX from A1 receptor in rat whole brain membrane
# Type: cell membranes
Measured quantity: Ki

Recorded results for 6 compounds are shown here.
given_smiles=c1ccn2ccnc2c1 measured_quantity=Ki assay_value="> 100 µM"
given_smiles=Cc1ccc(-c2nc3ccccn3c2NC2CCCCC2)cc1 measured_quantity=Ki assay_value="2.06 µM"
given_smiles=O=[N+]([O-])c1ccc(-c2nc3ccccn3c2NC2CCCCC2)cc1 measured_quantity=Ki assay_value="> 100 µM"
given_smiles=Clc1ccc(-c2nc3ccccn3c2NC2CCCCC2)cc1 measured_quantity=Ki assay_value="> 100 µM"
given_smiles=COc1ccc(-c2cn3ccccc3n2)cc1 measured_quantity=Ki assay_value="> 100 µM"
given_smiles=Nc1c(-c2ccccc2)nc2ccccn12 measured_quantity=Ki assay_value="> 100 µM"

# lookup: Ki of "Oc1ccc(-c2cn3ccccc3n2)cc1"
> 100 µM

Which value of Ki has been reported for "COc1ccc(-c2nc3ccccn3c2NC2CCCCC2)cc1" in the records?
7.61 µM

Value lookup for Ki; key = "c1ccc(-c2cn3ccccc3n2)cc1"
> 100 µM

Param item = "Fc1ccc(-c2nc3ccccn3c2NC2CCCCC2)cc1" ; retrieve measured Ki.
> 100 µM

What measured Ki goes with "Brc1ccc(-c2nc3ccccn3c2NC2CCCCC2)cc1" ?
3.9 µM

Would you kindly share the measured Ki for "Brc1ccc(-c2cn3ccccc3n2)cc1" ?
> 100 µM

GET /values?readout=Ki&item= "Oc1ccc(-c2nc3ccccn3c2NC2CCCCC2)cc1"
5.53 µM

What value of Ki has been reported for the following compound? "FC(F)(F)c1ccc(-c2nc3ccccn3c2NC2CCCCC2)cc1"
> 100 µM

# query: Ki of entry "c1ccc(-c2nc3ccccn3c2NC2CCCCC2)cc1"
> 100 µM

====

# Assay system: Adenosine receptor A1 (Rattus norvegicus)
# Experiment description: Displacement of [3H]-DPCPX from A1 receptor in rat whole brain membrane assessed as effect on GTP shift in presence of 100 uM GTP
# Format: cell membranes
Measured quantity: Ki (nM)
API: value field is a number in nM; no unit string.

Give the measured Ki of "Cc1ccc(-c2nc3ccccn3c2NC2CCCCC2)cc1" .
2000

====

# Assay system: Adenosine receptor A1 (Rattus norvegicus)
# Experiment description: Displacement of [3H]-DPCPX from A1 receptor in rat whole brain membrane
# Format: cell membranes
# Parameters: concentration or dose not given beside the values
# Test context: concentration not given here
Measured quantity: inhibition (%)

given_smiles=Clc1ccc(-c2nc3ccccn3c2NC2CCCCC2)cc1 measured_quantity=inhibition assay_value=61
given_smiles=O=[N+]([O-])c1ccc(-c2nc3ccccn3c2NC2CCCCC2)cc1 measured_quantity=inhibition assay_value=99
given_smiles=c1ccn2ccnc2c1 measured_quantity=inhibition assay_value=100
given_smiles=Oc1ccc(-c2cn3ccccc3n2)cc1 measured_quantity=inhibition assay_value=47
given_smiles=c1ccc(-c2nc3ccccn3c2NC2CCCCC2)cc1 measured_quantity=inhibition assay_value=57

[I] Nc1c(-c2ccccc2)nc2ccccn12
[II] FC(F)(F)c1ccc(-c2nc3ccccn3c2NC2CCCCC2)cc1
Which is greater in inhibition, the first item I or the second item II ? Please identify the chosen entry by its label.
II

[P] c1ccc(-c2cn3ccccc3n2)cc1
[Q] Brc1ccc(-c2cn3ccccc3n2)cc1
# min-compare on inhibition between P and Q The response must carry the label of the picked entry.
P

====

# Assay system: Adenosine receptor A2a (Rattus norvegicus)
# Experiment description: Displacement of [3H]-NECA from A2A receptor in rat striatal membrane in presence of A1 receptor agonist N6-cyclopentyladenosine
# Type: cell membranes
# Parameters: concentration or dose not given beside the values
# Test context: Striatum, concentration not given here
Measured quantity: inhibition (%)

given_smiles=Brc1ccc(-c2nc3ccccn3c2NC2CCCCC2)cc1 measured_quantity=inhibition assay_value=54
given_smiles=Clc1ccc(-c2nc3ccccn3c2NC2CCCCC2)cc1 measured_quantity=inhibition assay_value=64
given_smiles=COc1ccc(-c2nc3ccccn3c2NC2CCCCC2)cc1 measured_quantity=inhibition assay_value=55
given_smiles=Fc1ccc(-c2nc3ccccn3c2NC2CCCCC2)cc1 measured_quantity=inhibition assay_value=90
given_smiles=Nc1c(-c2ccccc2)nc2ccccn12 measured_quantity=inhibition assay_value=86
given_smiles=Brc1ccc(-c2cn3ccccc3n2)cc1 measured_quantity=inhibition assay_value=87
given_smiles=c1ccn2ccnc2c1 measured_quantity=inhibition assay_value=75
